# target.or.test.system: ALK2 (Homo sapiens)
# Construct: purchased ThermoFisher Scientific (Life Technologies)
# Sequence (Q04771 21-509): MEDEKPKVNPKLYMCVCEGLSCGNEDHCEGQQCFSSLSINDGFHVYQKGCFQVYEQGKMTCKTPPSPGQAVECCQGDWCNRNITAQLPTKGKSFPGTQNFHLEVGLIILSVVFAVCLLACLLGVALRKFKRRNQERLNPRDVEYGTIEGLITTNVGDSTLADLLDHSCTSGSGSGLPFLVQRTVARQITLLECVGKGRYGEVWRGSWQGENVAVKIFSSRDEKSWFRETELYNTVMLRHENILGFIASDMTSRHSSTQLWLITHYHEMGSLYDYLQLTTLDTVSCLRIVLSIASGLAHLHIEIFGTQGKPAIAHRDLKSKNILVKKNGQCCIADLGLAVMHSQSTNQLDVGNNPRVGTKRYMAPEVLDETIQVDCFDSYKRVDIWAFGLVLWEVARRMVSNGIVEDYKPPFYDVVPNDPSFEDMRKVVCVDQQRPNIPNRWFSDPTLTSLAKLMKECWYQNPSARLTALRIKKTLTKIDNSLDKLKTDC
# test.summary: LanthaScreen Eu Kinase Binding Assay, ALK2 inhibition
# settings: 1 micromolar concentration
readout.name: inhibition at 1 µM

- COc1cc(-n2cnc(Nc3nc(C4CC4)nc4c3cnn4C)c2)cc(OC)c1OC [Compound 114e]: > 50%
- COc1cc(-n2cnc(Nc3nc(C4CC(F)(F)C4)nc4c3cnn4C(C)C)c2)cc(OC)c1OC [Compound 28e]: > 50%
- CCn1ncc2c(Nc3cn(-c4cc(OC)c(OC)c(OC)c4)cn3)nc(CC3CC3)nc21 [Compound 124e]: > 50%
- COc1cc(-n2cnc(Nc3nc(C(C)CC(=O)O)nc4c3cnn4C(C)C)c2)cc(OC)c1OC (centres unmarked) [Compound 106a]: > 50%
- COc1cc(-n2cnc(Nc3nc(C(C)C)c4cnn(C(C)C)c4n3)c2)cc(OC)c1OC: > 50%
- COc1cc(-n2cnc(Nc3nc(C(F)(F)F)nc4c3cnn4C(C)C)c2)cc(OC)c1OC [Compound 26a]: > 50%
- COc1cc(-n2cnc(Nc3nc(C(F)(F)F)nc4[nH]ncc34)c2)cc(OC)c1OC [Compound 25b]: > 50%

Moving on to the next compound.
q: For ALK2 (Homo sapiens), provide inhibition at 1 µM of C=C(C)c1nc(Nc2cn(-c3cc(OC)c(OC)c(OC)c3)cn2)nc2ccccc12 [Compound 55c] please.
a: > 50%
